Measured values drawn from the supplement of paper PMC13380429 for this set.

Tested on: Vero E6 infected with SARS-CoV-2
Test: inhibition of SARS-CoV-2 cytopathic effect; higher = more antiviral protection, active = above 15
Details: 1 nM; 48 h
inhibition of SARS-CoV-2 cytopathic effect: recorded values
Report the value in % with no unit label.

INSERT INTO assay_data (molecule, study_target, result) VALUES
  ('COc1ccc(N2CCOCC2)c2sc(NC(=O)N3CCC(C)(O)CC3)nc12', 'Vero E6 infected with SARS-CoV-2', 1.95),
  ('CCC(C)CCCC(=O)N[C@@H](CCN)C(=O)N[C@H](C(=O)N[C@@H](CCN)C(=O)N[C@H]1CCNC(=O)[C@H]([C@@H](C)O)NC(=O)[C@H](CCN)NC(=O)[C@H](CCN)NC(=O)[C@H](CC(C)C)NC(=O)[C@@H](CC(C)C)NC(=O)[C@H](CCN)NC1=O)[C@@H](C)O (some centres undefined)', 'Vero E6 infected with SARS-CoV-2', 0.955),
  ('Nc1ccc(S(=O)(=O)Nc2cnc3ccccc3n2)cc1', 'Vero E6 infected with SARS-CoV-2', -0.58),
  ('CC1(C)N=C(N)N=C(N)N1OCCCOc1cc(Cl)c(Cl)cc1Cl', 'Vero E6 infected with SARS-CoV-2', -1.05),
  ('COc1cc2c(NC3CCN(C4CCCCC4)CC3)nc(N3CCCN(C(C)C)CC3)nc2cc1OCCCN1CCCCC1', 'Vero E6 infected with SARS-CoV-2', -0.42),
  ('CNc1cc(OC)c(C(=O)NC2CCN(Cc3ccccc3)C2C)cc1Cl (centres undefined) [nemonapride]', 'Vero E6 infected with SARS-CoV-2', -1.01),
  ('O=C(COP(=O)(O)O)[C@@H](O)[C@H](O)[C@H](O)COP(=O)(O)O', 'Vero E6 infected with SARS-CoV-2', -6.09),
  ('CCCCCCCCCCCCc1ccc(S(=O)(=O)Nc2nncs2)cc1', 'Vero E6 infected with SARS-CoV-2', -0.85),
  ('CCOCC(O)COc1ccc(NC(=O)CC[S+](C)C)cc1 (centres undefined)', 'Vero E6 infected with SARS-CoV-2', 2.01),
  ('Nc1ccc([As](=O)(O)O)cc1', 'Vero E6 infected with SARS-CoV-2', 0.07);

Req: Please give the measured inhibition of SARS-CoV-2 cytopathic effect for this molecule: Cc1ccc2c(Br)cc(Br)c(OC(=O)c3ccccc3)c2n1
Resp: 0.35

Req: Please give the measured inhibition of SARS-CoV-2 cytopathic effect for this molecule: C=C1/C(=C\C=C2/CCC[C@]3(C)[C@@H]([C@H](C)/C=C/[C@@H](O)C4CC4)CC[C@@H]23)C[C@@H](O)C[C@@H]1O
Resp: -0.16

Req: Please give the measured inhibition of SARS-CoV-2 cytopathic effect for this molecule: O=C(Oc1cc(S(=O)(=O)c2ccccc2)ccc1[N+](=O)[O-])c1ccc(Cl)cc1
Resp: 0.83

Req: Please give the measured inhibition of SARS-CoV-2 cytopathic effect for this molecule: CC1(C)C[C@@H]1C(=O)N/C(=C\CCCCSC[C@H](N)C(=O)O)C(=O)O [Cilastatin Sodium]
Resp: 1.3

###

System: Vero E6 infected with SARS-CoV-2
Test: inhibition of SARS-CoV-2 cytopathic effect; higher = more antiviral protection, active = above 15
Settings: 833.33 nM; 48 h
Give one outcome, nothing more. List: Yes for active, No for inactive

Req: Short answer needed: outcome of this test for N=C(N)c1ccc(OCCCCCOc2ccc(C(=N)N)cc2)cc1 ?
Resp: No

Req: Short answer needed: outcome of this test for CC(C)(C#N)c1ccc(N2C(=O)OCc3cnc4ccc(-c5cnc6ccccc6c5)cc4c32)cc1 ?
Resp: No

Req: Short answer needed: outcome of this test for COc1ccccc1OCC(O)CN1CCN(CC(=O)Nc2c(C)cccc2C)CC1 (centres undefined) ?
Resp: No

Req: Short answer needed: outcome of this test for Cc1cc(C(=O)Nc2nc3cccc(Cl)c3n2[C@@H]2CCCCN(C(=O)/C=C/CN(C)C)C2)ccn1 ?
Resp: No

Req: Short answer needed: outcome of this test for Cn1cc(C(=O)c2cccc3ccccc23)cc1C(=O)O ?
Resp: No

Req: Short answer needed: outcome of this test for FC(F)(F)c1ccc(CNc2ccc(Cc3c[nH]c4ncccc34)cn2)cc1 ?
Resp: No

Req: Short answer needed: outcome of this test for O=C1C=C2C=C[C@@H]3C[C@@]2(O1)[C@H]1CCCCN31 ?
Resp: No

Req: Short answer needed: outcome of this test for CCOC(=O)c1ncc2[nH]c3ccc(OCc4ccccc4)cc3c2c1COC ?
Resp: No

Req: Short answer needed: outcome of this test for CC(C)C[C@H](NC(=O)CNC(=O)c1cc(Cl)ccc1Cl)B1OC(=O)C(CC(=O)O)(CC(=O)O)O1 ?
Resp: Yes

Req: Short answer needed: outcome of this test for Cc1ncc(C)n2nc([C@@H]3C[C@H]3c3nc4c5cccnc5ccn4c3C)nc12 ?
Resp: No

Req: Short answer needed: outcome of this test for O=C[C@H](O)[C@@H](O)[C@H](O)CO ?
Resp: No

Req: Short answer needed: outcome of this test for CNCC(=O)O ?
Resp: No

Req: Short answer needed: outcome of this test for CCC(NC(C)C)C(O)c1ccc(O)c(O)c1 (centres undefined) ?
Resp: No

Req: Short answer needed: outcome of this test for Cc1cc(Nc2ncnc3ccc(NC4=NC(C)(C)CO4)cc23)ccc1Oc1ccn2ncnc2c1 ?
Resp: No
